Tested on: CCRF-CEM
Test: Antiviral activity against CEM cells
Format: functional, cell-based
Details: Homo sapiens
IC50 reference

CC(C)(C)NC(=O)c1ccccc1C[C@@H](O)[C@H](Cc1ccccc1)NC(=O)[C@H](C[S+]([O-])c1cccc2ccccc12)NS(C)(=O)=O (stereo partly drawn) = < 0.5 nM
CC(C)(C)NC(=O)c1ccccc1C[C@@H](O)[C@H](Cc1ccccc1)NC(=O)[C@H](CS(=O)(=O)c1cccc2ccccc12)NS(C)(=O)=O = < 0.5 nM

# next compound below
Form: compound = CC(C)(C)NC(=O)c1ccccc1C[C@@H](O)[C@H](Cc1ccccc1)NC(=O)[C@H](C[S+]([O-])c1ccc2ccccc2c1)NS(C)(=O)=O (stereo partly drawn) ; IC50 = < 0.5 nM
